Tested on: NCI-H196 complex spheroids with HUVEC/MSC, growth % T/C
assay_protocol: Anticancer human tumor NCI-H196 cell line growth inhibition [Asc];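 further: spheroids exposed to compound for 7 days before measurement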;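 on viability, T/C: 100% = DMSO vehicle control wells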
test_settings: second compound 0.949 µM; first compound 1 µM; stronger effect = lower value
The reader will find reported viability, T/C values listed item by item below.
property: viability, T/C (%)

* O=C(c1cc(Cc2n[nH]c(=O)c3ccccc23)ccc1F)N1CCN(C(=O)C2CC2)CC1 + CCN1C(C(=O)NC23CCC(C(=O)O)(CC2)CC3)C(c2cccc(Cl)c2F)C2(C(=O)Nc3cc(Cl)ccc32)C12CCCCC2 | 121
* C#Cc1c(F)ccc2cc(O)cc(-c3ncc4c(N5CC6CCC(C5)N6)nc(OCC56CCCN5CC(F)C6)nc4c3F)c12 (configuration not stated) + CCN1C(C(=O)NC23CCC(C(=O)O)(CC2)CC3)C(c2cccc(Cl)c2F)C2(C(=O)Nc3cc(Cl)ccc32)C12CCCCC2 | 93

====

Test system: NCI-H196 complex spheroids with HUVEC/MSC, growth % T/C
assay_protocol: Anticancer human tumor NCI-H196 cell line growth inhibition [Asc]; active = viability on the fitted dose curve at most 10% of control; inactive = the rest;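 further: spheroids exposed to compound for 7 days before measurement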
test_settings: second compound 0.1 µM; first compound 0.00949 µM
Outcomes: 1 (yes) (active), 0 (no) (inactive)

• Cc1nc(N2CCC3(CC2)COC(C)C3N)c(CO)nc1Sc1ccnc(N)c1Cl (configuration not stated) + Cc1c(S(C)(=O)=O)c(-c2cc(F)cc(N3CCN(c4ccc(NS(=O)(=O)c5ccc(NC(CCN6CCC(C(=O)OCCCP(=O)(O)O)CC6)CSc6ccccc6)c(S(=O)(=O)C(F)(F)F)c5)cc4)CC3)c2)c(-c2ccc(Cl)cc2)n1C(C)C = 0 (no)
• Cc1nc(N2CCC3(CC2)COC(C)C3N)c(CO)nc1Sc1ccnc(N)c1Cl (configuration not stated) + CNC(C)C(=O)NC1CN(S(=O)(=O)c2cccc(S(=O)(=O)N3CCC4CCC(C(=O)NC(c5ccccc5)c5ccccc5)N4C(=O)C(NC(=O)C(C)NC)C3)c2)CCC2CCC(C(=O)NC(c3ccccc3)c3ccccc3)N2C1=O = 1 (yes)

====

Test system: NCI-H196 complex spheroids with HUVEC/MSC, growth % T/C
assay_protocol: Anticancer human tumor NCI-H196 cell line growth inhibition [Asc];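 further: spheroids exposed to compound for 7 days before measurement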
test_settings: curve of first compound; second compound 3.16 µM
property: IC50

* C=C(F)C(=O)N1CCN(c2nc(OCC3CCCN3C)nc3c2CCN(c2cccc4cccc(Cl)c24)C3)CC1CC#N (stereo not drawn) + Cc1c(S(C)(=O)=O)c(-c2cc(F)cc(N3CCN(c4ccc(NS(=O)(=O)c5ccc(NC(CCN6CCC(C(=O)OCCCP(=O)(O)O)CC6)CSc6ccccc6)c(S(=O)(=O)C(F)(F)F)c5)cc4)CC3)c2)c(-c2ccc(Cl)cc2)n1C(C)C | 5.08 µM
* CCN1CCN(Cc2ccc(Nc3ncc(F)c(-c4cc(F)c5nc(C)n(C(C)C)c5c4)n3)nc2)CC1 + Cc1c(S(C)(=O)=O)c(-c2cc(F)cc(N3CCN(c4ccc(NS(=O)(=O)c5ccc(NC(CCN6CCC(C(=O)OCCCP(=O)(O)O)CC6)CSc6ccccc6)c(S(=O)(=O)C(F)(F)F)c5)cc4)CC3)c2)c(-c2ccc(Cl)cc2)n1C(C)C | > 1 µM
* C#Cc1c(F)ccc2cc(O)cc(-c3ncc4c(N5CC6CCC(C5)N6)nc(OCC56CCCN5CC(F)C6)nc4c3F)c12 (stereo not drawn) + Cc1c(S(C)(=O)=O)c(-c2cc(F)cc(N3CCN(c4ccc(NS(=O)(=O)c5ccc(NC(CCN6CCC(C(=O)OCCCP(=O)(O)O)CC6)CSc6ccccc6)c(S(=O)(=O)C(F)(F)F)c5)cc4)CC3)c2)c(-c2ccc(Cl)cc2)n1C(C)C | > 10 µM

====

Tested on: NCI-H196 complex spheroids with HUVEC/MSC, growth % T/C
assay_protocol: Anticancer human tumor NCI-H196 cell line growth inhibition [Asc];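 further: spheroids exposed to compound for 7 days before measurement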;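 on viability, T/C: 100% = DMSO vehicle control wells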
test_settings: second compound 1 µM; first compound 0.00316 µM; stronger effect = lower value
property: viability, T/C (%)

• COc1c(OCCCN2CCOCC2)ccc2c3n(c(=NC(=O)c4cnc(N)nc4)nc12)CCN3 + Cc1c(S(C)(=O)=O)c(-c2cc(F)cc(N3CCN(c4ccc(NS(=O)(=O)c5ccc(NC(CCN6CCC(C(=O)OCCCP(=O)(O)O)CC6)CSc6ccccc6)c(S(=O)(=O)C(F)(F)F)c5)cc4)CC3)c2)c(-c2ccc(Cl)cc2)n1C(C)C = 88.8
• CNC(C)C(=O)NC1CN(S(=O)(=O)c2cccc(S(=O)(=O)N3CCC4CCC(C(=O)NC(c5ccccc5)c5ccccc5)N4C(=O)C(NC(=O)C(C)NC)C3)c2)CCC2CCC(C(=O)NC(c3ccccc3)c3ccccc3)N2C1=O (centres undefined) + Cc1c(S(C)(=O)=O)c(-c2cc(F)cc(N3CCN(c4ccc(NS(=O)(=O)c5ccc(NC(CCN6CCC(C(=O)OCCCP(=O)(O)O)CC6)CSc6ccccc6)c(S(=O)(=O)C(F)(F)F)c5)cc4)CC3)c2)c(-c2ccc(Cl)cc2)n1C(C)C = 32.3
• O=C(c1ccc(F)c(F)c1Nc1ccc(I)cc1F)N1CC(O)([C@@H]2CCCCN2)C1 + CNC(C)C(=O)NC1CN(S(=O)(=O)c2cccc(S(=O)(=O)N3CCC4CCC(C(=O)NC(c5ccccc5)c5ccccc5)N4C(=O)C(NC(=O)C(C)NC)C3)c2)CCC2CCC(C(=O)NC(c3ccccc3)c3ccccc3)N2C1=O = 3.63
• NC1CCC(NC2CC2c2ccccc2)CC1 (centres undefined) + Cc1c(S(C)(=O)=O)c(-c2cc(F)cc(N3CCN(c4ccc(NS(=O)(=O)c5ccc(NC(CCN6CCC(C(=O)OCCCP(=O)(O)O)CC6)CSc6ccccc6)c(S(=O)(=O)C(F)(F)F)c5)cc4)CC3)c2)c(-c2ccc(Cl)cc2)n1C(C)C = 89.8

====

Tested on: NCI-H196 complex spheroids with HUVEC/MSC, growth % T/C
assay_protocol: Anticancer human tumor NCI-H196 cell line growth inhibition [Asc]; active = viability on the fitted dose curve at most 10% of control; inactive = the rest;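 further: spheroids exposed to compound for 7 days before measurement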
test_settings: second compound 3.16 µM; first compound 1 µM
Outcomes: 1.0 for active, 0.0 for inactive

* C=CC(=O)N1CCN(c2nc(=O)n(-c3c(C)ccnc3C(C)C)c3nc(-c4c(O)cccc4F)c(F)cc23)C(C)C1 (stereo not drawn) + Cc1c(S(C)(=O)=O)c(-c2cc(F)cc(N3CCN(c4ccc(NS(=O)(=O)c5ccc(NC(CCN6CCC(C(=O)OCCCP(=O)(O)O)CC6)CSc6ccccc6)c(S(=O)(=O)C(F)(F)F)c5)cc4)CC3)c2)c(-c2ccc(Cl)cc2)n1C(C)C | 0.0
* C=C(F)C(=O)N1CCN(c2nc(OCC3CCCN3C)nc3c2CCN(c2cccc4cccc(Cl)c24)C3)CC1CC#N (stereo not drawn) + Cc1c(S(C)(=O)=O)c(-c2cc(F)cc(N3CCN(c4ccc(NS(=O)(=O)c5ccc(NC(CCN6CCC(C(=O)OCCCP(=O)(O)O)CC6)CSc6ccccc6)c(S(=O)(=O)C(F)(F)F)c5)cc4)CC3)c2)c(-c2ccc(Cl)cc2)n1C(C)C | 0.0
* COc1c(OCCCN2CCOCC2)ccc2c3n(c(=NC(=O)c4cnc(N)nc4)nc12)CCN3 + Cc1c(S(C)(=O)=O)c(-c2cc(F)cc(N3CCN(c4ccc(NS(=O)(=O)c5ccc(NC(CCN6CCC(C(=O)OCCCP(=O)(O)O)CC6)CSc6ccccc6)c(S(=O)(=O)C(F)(F)F)c5)cc4)CC3)c2)c(-c2ccc(Cl)cc2)n1C(C)C | 0.0
* CCN1CCN(Cc2ccc(Nc3ncc(F)c(-c4cc(F)c5nc(C)n(C(C)C)c5c4)n3)nc2)CC1 + Cc1c(S(C)(=O)=O)c(-c2cc(F)cc(N3CCN(c4ccc(NS(=O)(=O)c5ccc(NC(CCN6CCC(C(=O)OCCCP(=O)(O)O)CC6)CSc6ccccc6)c(S(=O)(=O)C(F)(F)F)c5)cc4)CC3)c2)c(-c2ccc(Cl)cc2)n1C(C)C | 0.0
* C#Cc1c(F)ccc2cc(O)cc(-c3ncc4c(N5CC6CCC(C5)N6)nc(OCC56CCCN5CC(F)C6)nc4c3F)c12 (stereo not drawn) + Cc1c(S(C)(=O)=O)c(-c2cc(F)cc(N3CCN(c4ccc(NS(=O)(=O)c5ccc(NC(CCN6CCC(C(=O)OCCCP(=O)(O)O)CC6)CSc6ccccc6)c(S(=O)(=O)C(F)(F)F)c5)cc4)CC3)c2)c(-c2ccc(Cl)cc2)n1C(C)C | 0.0
* O=C(c1cc(Cc2n[nH]c(=O)c3ccccc23)ccc1F)N1CCN(C(=O)C2CC2)CC1 + Cc1c(S(C)(=O)=O)c(-c2cc(F)cc(N3CCN(c4ccc(NS(=O)(=O)c5ccc(NC(CCN6CCC(C(=O)OCCCP(=O)(O)O)CC6)CSc6ccccc6)c(S(=O)(=O)C(F)(F)F)c5)cc4)CC3)c2)c(-c2ccc(Cl)cc2)n1C(C)C | 0.0
* O=C(c1ccc(F)c(F)c1Nc1ccc(I)cc1F)N1CC(O)([C@@H]2CCCCN2)C1 + Cc1c(S(C)(=O)=O)c(-c2cc(F)cc(N3CCN(c4ccc(NS(=O)(=O)c5ccc(NC(CCN6CCC(C(=O)OCCCP(=O)(O)O)CC6)CSc6ccccc6)c(S(=O)(=O)C(F)(F)F)c5)cc4)CC3)c2)c(-c2ccc(Cl)cc2)n1C(C)C | 0.0
* CNC(C)C(=O)NC1CN(S(=O)(=O)c2cccc(S(=O)(=O)N3CCC4CCC(C(=O)NC(c5ccccc5)c5ccccc5)N4C(=O)C(NC(=O)C(C)NC)C3)c2)CCC2CCC(C(=O)NC(c3ccccc3)c3ccccc3)N2C1=O (stereo not drawn) + Cc1c(S(C)(=O)=O)c(-c2cc(F)cc(N3CCN(c4ccc(NS(=O)(=O)c5ccc(NC(CCN6CCC(C(=O)OCCCP(=O)(O)O)CC6)CSc6ccccc6)c(S(=O)(=O)C(F)(F)F)c5)cc4)CC3)c2)c(-c2ccc(Cl)cc2)n1C(C)C | 1.0
